assay: Pharmacokinetic profile at 25 and 50 mg/Kg (Table S9b); assay type: in vivo, Male CD1 mouse; settings: male, CD1, mouse, whole blood, po, 25 mg/kg, oral, blood, individual mice 1 and 2; read-out: Cmax
Measure: Cmax (ng/mL)
Return type: number; implicit unit ng/mL.

Entry "[C-]#[N+][C@]1(C)CC[C@H]2[C@@H]([C@@H](C(C)C)CC[C@]2(C)[N+]#[C-])[C@H]1O" : reported Cmax = ?
5810

---

experiment: Pharmacokinetic profile at 25 and 50 mg/Kg (Table S9b); format: in vivo, Male CD1 mouse; conditions: male, CD1, mouse, whole blood, po, 25 mg/kg, Mean; read-out: AUCINF_obs
Measure: AUC(0-inf) (ng·h/mL)
Number in ng·h/mL, nothing else.

For the compound shown here, [C-]#[N+][C@]1(C)CC[C@H]2[C@@H]([C@@H](C(C)C)CC[C@]2(C)[N+]#[C-])[C@H]1O [MED6-189] , give the reported AUC(0-inf).
37600

---

tested on: P. cynomolgi M/B strain parasites; assay: P. cynomolgi M/B strain drug assay (Hoechst flow cytometry); format: cell-based; conditions: Plasmodium cynomolgi, harvested 60 hours after initial dosing
Measure: pIC50
Reminder that pIC50 means the negative base-10 logarithm of the concentration expressed in mol/L.

Would you kindly share the measured pIC50 for "[C-]#[N+][C@]1(C)CC[C@H]2[C@@H]([C@@H](C(C)C)CC[C@]2(C)[N+]#[C-])[C@H]1O" ?
6.87

---

experiment: Pharmacokinetic profile at 25 and 50 mg/Kg (Table S9b); type: in vivo, Male CD1 mouse; conditions: male, CD1, mouse, whole blood, po, 50 mg/kg, oral, blood, individual mice 1 and 2; read-out: Cmax
Measure: Cmax (ng/mL)
Give the number; ng/mL is assumed, so skip it.

Return reported Cmax; argument: [C-]#[N+][C@]1(C)CC[C@H]2[C@@H]([C@@H](C(C)C)CC[C@]2(C)[N+]#[C-])[C@H]1O [MED6-189]
6860

---

system: hTERT; test: Human cell line activity, hTERT; assay type: cell-based; settings: read-out: IC50 (µM) hTERT
Measure: IC50 (µM)
Give the number; µM is assumed, so skip it.

Would you mind telling me what IC50 value was observed for [C-]#[N+][C@]1(C)CC[C@H]2[C@@H]([C@@H](C(C)C)CC[C@]2(C)[N+]#[C-])[C@H]1O [MED6-189] ?
26

---

tested on: PfSec13-mut transgenic clones (3D7); assay: Parasite survival assay, CRISPR-Cas9 PfSec13-mut transgenic clones; format: cell-based; conditions: Plasmodium falciparum, 3D7, Sec13 mut-D
Measure: IC50 (nM)
Return type: number; implicit unit nM.

Which measured IC50 value corresponds to [C-]#[N+][C@]1(C)CC[C@H]2[C@@H]([C@@H](C(C)C)CC[C@]2(C)[N+]#[C-])[C@H]1O [MED6-189] ?
72.9

---

test: Pharmacokinetics after oral administration to P. falciparum-infected mice (Table S10); type: in vivo, P. falciparum-infected SCID mice; conditions: SCID, mouse, whole blood, po, 50 mg/kg, 50mg/kg oral, infected mice, Mean
Measure: AUC(0-t) (µg·h/mL)
Field format: number, assumed µg·h/mL, no unit text.

// AUC(0-t) lookup, key: "[C-]#[N+][C@]1(C)CC[C@H]2[C@@H]([C@@H](C(C)C)CC[C@]2(C)[N+]#[C-])[C@H]1O"
101

---

experiment: Pharmacokinetic profile at 25 and 50 mg/Kg (Table S9b); assay type: in vivo, Male CD1 mouse; settings: male, CD1, mouse, whole blood, po, 50 mg/kg, Mean
Measure: AUC(0-t) (µg·h/mL)
Lab book: enter the figure in µg·h/mL, no units written.

Returns the measured AUC(0-t) for the input compound. Input: "[C-]#[N+][C@]1(C)CC[C@H]2[C@@H]([C@@H](C(C)C)CC[C@]2(C)[N+]#[C-])[C@H]1O"
101

---

experiment: Pharmacokinetic profile at 25 and 50 mg/Kg (Table S9b); type: in vivo, Male CD1 mouse; conditions: male, CD1, mouse, whole blood, po; 25 mg/Kg, individual mice
Measure: Tmax (h)
# number only, unit h dropped from output

Would you mind telling me what Tmax value was observed for "[C-]#[N+][C@]1(C)CC[C@H]2[C@@H]([C@@H](C(C)C)CC[C@]2(C)[N+]#[C-])[C@H]1O" ?
4

---

Tested on: P. knowlesi YH1 rhesus erythrocyte infecting parasites
Test: P. knowlesi in vitro IC50 assay (flow cytometry), rhesus erythrocytes
Assay type: cell-based
Conditions: Plasmodium knowlesi, in Macaca mulatta
Protocol: Fig. 5. In vivo and broad-spectrum antimalarial efficacy of MED6-189. (A) The in vivo efficacy of MED6-189 was evaluated in a humanized mouse model infected with P. falciparum (blue) compared with untreated controls (black). […] Detailed information on materials and methods is available in the supplementary materials. […] P. knowlesi assays were quantitatively measured by flow cytometry using SYBR Green I and Mitrotracker Deep Red, as previously described ([84], [85]), on a Beckman Coulter CytoFLEX. […]
Measure: pIC50
The scale used: pIC50 is minus the common logarithm of the concentration in molar units.

Suppose we examine the compound "[C-]#[N+][C@]1(C)CC[C@H]2[C@@H]([C@@H](C(C)C)CC[C@]2(C)[N+]#[C-])[C@H]1O" ; what pIC50 value has been reported?
6.56

---

assay: Pharmacokinetic profile at 25 and 50 mg/Kg (Table S9b); assay type: in vivo, Male CD1 mouse; conditions: male, CD1, mouse, whole blood, po, 25 mg/kg, oral, blood, Mean of 2 mice; read-out: Cmax
Measure: Cmax (ng/mL)
Please respond with the number in ng/mL and leave the unit unwritten.

I am curious: what Cmax value has been reported for "[C-]#[N+][C@]1(C)CC[C@H]2[C@@H]([C@@H](C(C)C)CC[C@]2(C)[N+]#[C-])[C@H]1O" ?
4720

---

tested on: P. falciparum NF54 (MRA-1000); test: SYBR Green I growth inhibition assay, NF54; assay type: cell-based, Plasmodium falciparum; conditions: early-ring stage, 72 h exposure
Measure: IC50 (nM)
Numeric only. Scale: nM

Fill in the recorded IC50 for this compound, with P. falciparum NF54 (MRA-1000) as test system: [C-]#[N+][C@]1(C)CC[C@H]2[C@@H]([C@@H](C(C)C)CC[C@]2(C)[N+]#[C-])[C@H]1O [MED6-189]
27

---

assay: Pharmacokinetic profile at 25 and 50 mg/Kg (Table S9b); assay type: in vivo, Male CD1 mouse; conditions: male, CD1, mouse, whole blood, po, 50 mg/kg, Mean; read-out: AUCINF_obs
Measure: AUC(0-inf)
Show the value, then the unit it is measured in.

Consider the compound shown here: [C-]#[N+][C@]1(C)CC[C@H]2[C@@H]([C@@H](C(C)C)CC[C@]2(C)[N+]#[C-])[C@H]1O [MED6-189] What is its recorded AUC(0-inf)?
105 µg·h/mL

---

test: Pharmacokinetics after oral administration to P. falciparum-infected mice (Table S10); type: in vivo, P. falciparum-infected SCID mice; conditions: SCID, mouse, whole blood, po, 50 mg/kg, 50mg/kg oral, infected mice, individual mice; read-out: AUCINF_obs
Measure: AUC(0-inf) (ng·h/mL)
Use ng·h/mL as the unit, but write only the number.

Requested field: AUC(0-inf). Item: "[C-]#[N+][C@]1(C)CC[C@H]2[C@@H]([C@@H](C(C)C)CC[C@]2(C)[N+]#[C-])[C@H]1O"
94100

---

system: P. falciparum W2 (MRA-157, chloroquine resistant); assay: SYBR Green I growth inhibition assay, W2; type: cell-based, Plasmodium falciparum; details: early-ring stage, 72 h exposure
Measure: IC50 (µM)
# value in µM; strip the unit string

May I ask what IC50 has been recorded for [C-]#[N+][C@]1(C)CC[C@H]2[C@@H]([C@@H](C(C)C)CC[C@]2(C)[N+]#[C-])[C@H]1O [MED6-189] ?
0.0267

---

test: Pharmacokinetics after oral administration to P. falciparum-infected mice (Table S10); type: in vivo, P. falciparum-infected SCID mice; details: SCID, mouse, whole blood; 50mg/kg oral, infected mice, individual mice
Measure: Tmax (h)
Numbers only here, please. The scale is h.

Return reported Tmax; argument: "[C-]#[N+][C@]1(C)CC[C@H]2[C@@H]([C@@H](C(C)C)CC[C@]2(C)[N+]#[C-])[C@H]1O"
7
